- Protocol text: soluble on expression in E. coli; label from the status in PepcDB or PDB records
Experimental readout: soluble on expression in E. coli

Record sequence | soluble on expression in E. coli
MGSDKIHHHHHHMGNAAASTRAICHRRCSTYPRMNDFQSLSTEESPAPAGTNPAVNPIARIHGEPVTEIPSDLYIPPDALEVFLDTFQGPLDLLLYLIRKHNLDVLDIAMAELTRQYLAYIEMMRANKLELAAEYLLMAAVLIEIKSRMLLPKPVAKGNEDEVDPRAELVRRLLEYEQMKVAGQKLNKLPQAERDFALTNVWIEQKVIERLPEVNADDLRNAWLILMARLNVNRRHNITREELSVREHMTRILRHVQGHHFVEFSDLFNAAAGAAELVVTFLALLELVKERQVEVSQPSAFGMIYVRPISVLTTV | not soluble
MSLKNTFVYQAEKPVIKLLQITDPHLFKDESAELLGVNTQASFAQVLKEIQQENNEFDVILATGDLVQDSSDEGYIRFVEMMKPFNKPVFWIPGNHDFQPKMAEFLNQPPMNAAKHLLLGEHWQALLLDSQVYGVPHGQLSQHQLDLLKETLGKNPERYTLVVLHHHLLPTNSAWLDQHNLRNSHELAEVLAPFTNVKAILYGHIHQEVNSEWNGYQVMATPATCIQFKPDCQYFSLDTLQPGWREIELHSDGSIRTEVKRIQQAEFFPNMQEEGYEGGSHHHHHH | soluble
MSLKYDWILFDADETLFHFDAFKGMQLMFARKGVEFTEQDFHQYQEVNKPLWVDYQNGDITAAQLKHTRFAGWAEKLNTTTDELNSAFLQAMADICTLLPGAMELMQALQGKARLGIITNGFTELQDVRLAKTGMTDFFDQIVISEEVGIAKPDAGIFAHALERMGNPTKSRVLMVGDNPHSDILGGLNFGIETCWLNVHQHPKPDGITPHYEVTSLHELREILLAEGHHHHHH | soluble
APKNGTVQEKKFFSKELNEEMTLLVYLPSNYSPLYKYHVIIAQDGHDYFRLGRIGRQVEELLSKREIDRSIIIGVPYKDVKERRNTYHPEGSKFSAYKRFIAHELVPFADDEYPTYQIGYGRTLIGDSLGATVSLMTALDYPNMFGNIIMQSPYVDKHVLEAVKQSDDIKHLSIYHQIGTKETDVHTTDGNILDFTEPNRELKQLLEKKLSDYDFEPFDGDHKWTYWQPLITPALKKML | not soluble

Please look up its soluble on expression in E. coli: "MRTISFFNNKGGVGKTTLSTNVAHYFALQGKRVLYVDCDPQCNATQLMLTEEQTESIYLDGLNDEVAERNSLAKTVYAIFVPLREGESQIAAEITPMRSERFGVDVLPGHPALSQIEDLMSDSWQSALGRQTGPFRRIHWAGQLAHAMERDDRYDVIFFDVGPSLGPFNRTVLLGCDAFVTPTATDLFSFHAFGNLARWFDAWVTQYAEIHEGNMAEWKKYSADVEAKTRPLRLGGFDGEGLRYLGYTTLEYVKRRANGQEQLVGAFERFRGRFAAEAERISNSLSKHSNSTLLGHVPHMHSMPATAQDVHAPIMELSSSDRVRGAQINQRNAYAEKINSVAANVYKALFPNELEHHHHHH"
soluble
